Experiment: Selectivity ratio of IC50 for human NCI-H727 cells to IC50 for human NCI-H23 cells
Format: functional
Residues, ends and D or L forms follow the SMILES beside them. *: point of attachment. Cbz = O=C(OCc1ccccc1)*
measurement kind: Ratio IC50
Just the number, please, no unit attached.

Study these solved cases before continuing.
- compound: "CC(C)C[C@H](NC(=O)[C@H](Cc1ccccc1)NC(=O)c1cnccn1)B(O)O"
  result value: 2.5
- compound: "CC(C)C[C@@H](C=O)NC(=O)[C@H](CC(C)C)NC(=O)[C@H](CC(C)C)NC(=O)OCc1ccccc1 [MG-132] (Cbz-Leu-Leu-Leu-aldehyde)"
  result value: 2
- compound: "CCCCCCC(=O)N[C@@H](CO)C(=O)N[C@@H](CC(C)C)C(=O)[C@@]1(COCOCCOC)CO1"
  result value: 1.3

# next compound below
Give the reported value of Ratio IC50 for this record: `CCCCCCC(=O)N[C@@H](C)C(=O)N[C@@H](CC(C)C)C(=O)[C@@]1(CO[Si](C)(C)C(C)(C)C)CO1`
1.5

###

Assay: Half life in patient with relapsed and refractory multiple myeloma
Type: ADME
Conditions: human, in vivo
measurement kind: half-life

Retrieve half-life measured for `CC(C)C[C@H](NC(=O)[C@H](CCc1ccccc1)NC(=O)CN1CCOCC1)C(=O)N[C@@H](Cc1ccccc1)C(=O)N[C@@H](CC(C)C)C(=O)[C@@]1(C)CO1` and print it.
< 1 h

###

Test system: RPMI-8226
Assay: Cytotoxicity against human RPMI8226 cells after 72 hrs by CellTiter 96 AQueous one solution cell proliferation assay
Assay type: functional, cell-based
Conditions: RPMI-8226, 72 h
Items are presented alongside their recorded IC50.
Numbers only; they are read as nM.

Supply reported IC50 belonging to this molecule: CC[C@H](C)[C@H](NC(=O)[C@H]([C@@H](C)CC)N(C)C(C)=O)C(=O)N[C@H](C(=O)N[C@@H](CC(C)C)C(=O)[C@@]1(C)CO1)[C@@H](C)O [EPOXOMYCIN]
11

Give recorded IC50. `CCCCCCC(=O)N[C@@H](CO)C(=O)N[C@@H](CC(C)C)C(=O)[C@@]1(COCOCCOC)CO1`
2080

Item `CCCCCCC(=O)N[C@@H](C)C(=O)N[C@@H](CC(C)C)C(=O)[C@@]1(CO[Si](C)(C)C(C)(C)C)CO1` : provide IC50
2140

// Input: CC(C)C[C@H](NC(=O)[C@H](CCc1ccccc1)NC(=O)CN1CCOCC1)C(=O)N[C@@H](Cc1ccccc1)C(=O)N[C@@H](CC(C)C)C(=O)[C@@]1(C)CO1 [CARFILZOMIB] . Output its IC50 only.
7

###

pIC50 reference
Target: Proteasome subunit beta type-9 (Homo sapiens, UniProt P28065)
Sequence (P28065 whole entry): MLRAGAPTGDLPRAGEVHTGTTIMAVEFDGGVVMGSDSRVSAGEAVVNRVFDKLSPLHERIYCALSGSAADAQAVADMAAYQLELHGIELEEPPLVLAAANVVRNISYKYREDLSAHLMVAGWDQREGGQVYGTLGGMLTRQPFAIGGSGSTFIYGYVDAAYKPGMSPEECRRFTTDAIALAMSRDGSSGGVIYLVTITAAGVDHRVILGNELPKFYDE
Assay: Inhibition of purified human 20S immunoproteasome beta1 subunit using Ac-Pro-Ala-Leu-AMC as substrate pretreated for 1 hr followed by substrate addition and measured at 1 min interval by fluorescence assay
Convention used: pIC50 is expressed as -log10 of the molar concentration.

# count of solved cases: 2
- query smiles: "CCCCCCC(=O)N[C@@H](C)C(=O)N[C@@H](CC(C)C)C(=O)[C@@]1(CO)CO1"
  result value: 7.44
- query smiles: "CC(C)C[C@H](NC(=O)[C@H](CCc1ccccc1)NC(=O)CN1CCOCC1)C(=O)N[C@@H](Cc1ccccc1)C(=O)N[C@@H](CC(C)C)C(=O)[C@@]1(CO)CO1"
  result value: 6.13

Now turn to the next compound.
State its pIC50 for this compound: `CCCCCCC(=O)N[C@@H](C)C(=O)N[C@@H](CC(C)C)C(=O)[C@@]1(CO[Si](C)(C)C(C)(C)C)CO1`
6.85

###

Known pIC50 of a selection of molecules
Molecular target: Proteasome Macropain subunit MB1 (Homo sapiens)
Sequence (P28074 whole entry): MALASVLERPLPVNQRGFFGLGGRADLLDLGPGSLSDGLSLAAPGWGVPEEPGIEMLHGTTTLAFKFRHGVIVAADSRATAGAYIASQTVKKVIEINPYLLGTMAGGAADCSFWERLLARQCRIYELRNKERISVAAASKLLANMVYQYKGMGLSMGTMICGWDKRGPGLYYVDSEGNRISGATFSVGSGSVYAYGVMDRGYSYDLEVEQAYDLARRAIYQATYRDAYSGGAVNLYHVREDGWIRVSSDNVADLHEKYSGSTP
Assay: Inhibition of 20S proteasome beta5 subunit in human RPMI8226 cell lysate using Suc-LLVY-AMC as substrate pretreated for 1 hr followed by substrate addition and measured at 1 min interval by fluorescence assay
// scale note: pIC50 = -log10(conc_M); give the bare number

- query smiles: "CCCCCCC(=O)N[C@@H](C)C(=O)N[C@@H](CC(C)C)C(=O)[C@@]1(CO)CO1"
  pIC50: 5.77
- query smiles: "CC(C)C[C@H](NC(=O)[C@H](CCc1ccccc1)NC(=O)CN1CCOCC1)C(=O)N[C@@H](Cc1ccccc1)C(=O)N[C@@H](CC(C)C)C(=O)[C@@]1(CO[Si](c2ccccc2)(c2ccccc2)C(C)(C)C)CO1"
  pIC50: 6.95
- query smiles: "CC(C)C[C@H](NC(=O)[C@H](CCc1ccccc1)NC(=O)CN1CCOCC1)C(=O)N[C@@H](Cc1ccccc1)C(=O)N[C@@H](CC(C)C)C(=O)[C@@]1(COS(C)(=O)=O)CO1"
  pIC50: 8.10

# input for lookup
Determine its reported pIC50: `CC(C)C[C@H](NC(=O)[C@H](CCc1ccccc1)NC(=O)CN1CCOCC1)C(=O)N[C@@H](Cc1ccccc1)C(=O)N[C@@H](CC(C)C)C(=O)[C@@]1(CO)CO1`
8.68

###

Molecular target: Proteasome Macropain subunit MB1 (Homo sapiens)
Sequence (P28074 whole entry): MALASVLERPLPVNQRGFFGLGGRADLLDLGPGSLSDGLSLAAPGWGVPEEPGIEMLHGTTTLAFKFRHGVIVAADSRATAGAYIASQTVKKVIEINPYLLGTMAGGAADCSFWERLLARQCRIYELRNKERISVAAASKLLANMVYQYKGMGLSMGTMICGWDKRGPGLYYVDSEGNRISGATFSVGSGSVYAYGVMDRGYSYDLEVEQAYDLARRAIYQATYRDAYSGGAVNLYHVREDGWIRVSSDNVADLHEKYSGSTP
Test: Inhibition of 20S proteasome beta5 subunit in human RPMI8226 cell lysate using Suc-LLVY-AMC as substrate pretreated for 1 hr followed by substrate addition and measured at 1 min interval by fluorescence assay
measurement kind: IC50

Worked cases, IC50 given:
- query smiles: "COCOC[C@]1(C(=O)[C@H](CC(C)C)NC(=O)[C@H](Cc2ccccc2)NC(=O)[C@H](CC(C)C)NC(=O)[C@H](CCc2ccccc2)NC(=O)CN2CCOCC2)CO1"
  target under test: "Proteasome Macropain subunit MB1 (Homo sapiens)"
  IC50: "> 1000 nM"
- query smiles: "COC[C@]1(C(=O)[C@H](CC(C)C)NC(=O)[C@H](Cc2ccccc2)NC(=O)[C@H](CC(C)C)NC(=O)[C@H](CCc2ccccc2)NC(=O)CN2CCOCC2)CO1"
  target under test: "Proteasome Macropain subunit MB1 (Homo sapiens)"
  IC50: "> 1000 nM"
- query smiles: "CCCCCCC(=O)N[C@@H](C)C(=O)N[C@@H](CC(C)C)C(=O)[C@@]1(CO[Si](C)(C)C(C)(C)C)CO1"
  target under test: "Proteasome Macropain subunit MB1 (Homo sapiens)"
  IC50: "> 10000 nM"

Please find the next compound below.
Specify measured IC50 for `COCCOCOC[C@]1(C(=O)[C@H](CC(C)C)NC(=O)[C@H](Cc2ccccc2)NC(=O)[C@H](CC(C)C)NC(=O)[C@H](CCc2ccccc2)NC(=O)CN2CCOCC2)CO1` .
> 1000 nM
